Molecular target: human A2B AR (Homo sapiens, UniProt P29275)
Construct: expressed in transfected cells; host or cells: CHO cells
Sequence (P29275 1-332): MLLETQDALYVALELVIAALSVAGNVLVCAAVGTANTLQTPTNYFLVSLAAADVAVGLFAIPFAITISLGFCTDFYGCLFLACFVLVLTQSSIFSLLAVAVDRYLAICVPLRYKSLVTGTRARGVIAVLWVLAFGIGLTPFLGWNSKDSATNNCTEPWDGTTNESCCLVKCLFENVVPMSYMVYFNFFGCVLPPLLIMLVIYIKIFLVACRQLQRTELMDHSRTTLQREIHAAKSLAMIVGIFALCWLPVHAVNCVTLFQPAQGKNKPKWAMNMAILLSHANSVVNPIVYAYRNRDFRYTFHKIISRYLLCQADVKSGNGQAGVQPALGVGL
Test: Radioligand binding assay at human A2B AR vs. [^3H]PSB-603
Settings: CHO cell membranes, n = 2 (n = 3 where marked a), read-out: Ki ± SEM, A2B vs. [^3H]PSB-603
pKi: −log10 of the molar value.
Give pKi for every item shown.

Reference set (3 entries):
[
  {
    "Molecule": "CCn1c(=O)c2c(nc3n2CCN(Cc2c(Cl)cccc2Cl)C3)n(C)c1=O [Compound 14k]",
    "Target Desc": "human A2B AR (Homo sapiens, UniProt P29275)",
    "Recorded Result": "< 6.00"
  },
  {
    "Molecule": "CCn1c(=O)c2c(nc3n2CCN(Cc2cccc(C(F)(F)F)c2F)C3)n(C)c1=O [Compound 14l]",
    "Target Desc": "human A2B AR (Homo sapiens, UniProt P29275)",
    "Recorded Result": "< 6.00"
  },
  {
    "Molecule": "C#CCn1c(=O)c2c(nc3n2CCN(Cc2cc(C(F)(F)F)ccc2Cl)C3)n(C)c1=O [Compound 19b]",
    "Target Desc": "human A2B AR (Homo sapiens, UniProt P29275)",
    "Recorded Result": "< 6.00"
  }
]

Look at each molecule and report its pKi.
1. CCn1c(=O)c2c(nc3n2CCN(Cc2cc(F)c(F)c(F)c2)C3)n(CC)c1=O [Compound 15r]
2. CCn1c(=O)c2c(nc3n2CCN(Cc2cccc(Br)c2)C3)n(CC)c1=O [Compound 15d]
3. C#CCn1c(=O)c2c(nc3n2CCN(Cc2ccccc2)C3)n(CC)c1=O [Compound 20e]

Result block:
< 6.00
6.30
< 6.00

All values here come from paper PMC6028563.
